# procedure-text: BET inhibitor-based combinations targeting novel dependencies in MECOM-rearranged (r) AML: AML-191 cell line (AID 2202236; further: nearly all actives have a fitted effect of over 35% in size)
# setup-conditions: AML-191 viability, CellTiter-Glo luminescence, 48 h; series mostly up to 46 µM
Results filed as inconclusive are left out. The source made the active and inactive calls. The call rests on the fitted dose curve; in most records, active means well fitted inhibition curve with a large enough effect; inconclusive means small, poorly fitted or top-dose-only effect; inactive means flat fitted curve, though single readings scatter.
Outcome codes: true = active, false = inactive

[
  {
    "molecule": "C[C@H](NC(=O)/C(C#N)=C/c1cccc(Br)n1)c1ccccc1",
    "assigned-class": "true"
  },
  {
    "molecule": "C=CC(=O)Nc1cccc(Oc2nc(Nc3ccc(N4CCN(C)CC4)cc3)nc3ccsc23)c1",
    "assigned-class": "true"
  },
  {
    "molecule": "COc1ccc(-c2oc3ncnc(N)c3c2-c2ccc(NC(=O)Nc3cc(C(F)(F)F)ccc3F)cc2)cc1",
    "assigned-class": "true"
  },
  {
    "molecule": "C[C@]12CCC3[C@@H](CC[C@H]4NC(=O)C=C[C@]34C)[C@@H]1CC[C@@H]2C(=O)Nc1cc(C(F)(F)F)ccc1C(F)(F)F (some centres undefined)",
    "assigned-class": "false"
  }
]
